# Test system: HDAC in cells
# TEST_DETAILS: Cellular IC50 (cellular assays: histone hyperacetylation cytoblot / differential cytotoxicity)
# Assay type: cell-based
# TEST_CONDITIONS: transformed cell lines (e.g. HeLa, A549, MCF-7); cell line not specified
pIC50: −log10 of the molar value.
In this section, each of the compounds is paired with its reported pIC50.

# annotated cases, reported pIC50 shown
// query What value of pIC50 has been reported for the following compound? `CC(=O)SCC(=O)c1ccc(NS(=O)(=O)c2ccccc2F)cc1`
// result > 6.00

// query Check `CC(=O)SCC(=O)c1ccc(NS(=O)(=O)c2ccc(OC(F)(F)F)cc2)cc1F` too.
// result > 6.00

// query Check `CC(=O)SCC(=O)c1ccc(N(C)S(=O)(=O)c2ccc(OC(F)(F)F)cc2)cc1` too.
// result > 5.00

// query Check `CCS(=O)(=O)Nc1ccc(C(=O)CSC(C)=O)cc1` too.
// result > 5.00

// query Check `CC(=O)SCC(=O)c1ccc(NS(=O)(=O)c2cccc(Cl)c2)cc1` too.
// result > 6.00

New cases:
// query What value of pIC50 has been reported for the following compound? `CC(=O)SCC(=O)c1ccc(NS(=O)(=O)c2ccccn2)cc1`
// result > 6.00

// query Check `CC(=O)SCC(=O)c1ccc(S(=O)(=O)Nc2ccc(OC(F)(F)F)cc2)cc1` too.
// result > 5.00

// query Check `O=C(CSC(=O)c1cccnc1)c1ccc(NS(=O)(=O)c2ccc(OC(F)(F)F)cc2)cc1` too.
// result > 5.00

// query Check `COC(=O)SCC(=O)c1ccc(NS(=O)(=O)c2ccc(OC(F)(F)F)cc2)cc1` too.
// result > 6.00

###

In this section, each of the molecules is paired with its reported IC50.
# Test system: HDAC in cells
# TEST_DETAILS: Cellular IC50 (cellular assays: histone hyperacetylation cytoblot / differential cytotoxicity)
# Format: cell-based
# TEST_CONDITIONS: transformed cell lines (e.g. HeLa, A549, MCF-7); cell line not specified

# annotated cases, reported IC50 shown
// query Recorded IC50 for `CC(=O)SCC(=O)c1ccc(NS(=O)(=O)c2ccc(F)cc2C)cc1` with HDAC in cells, please?
// result < 1 µM

// query Check `O=C(CSC(=O)c1ccccn1)c1ccc(NS(=O)(=O)c2ccc(OC(F)(F)F)cc2)cc1` too.
// result < 1 µM

// query Check `CC(=O)SCC(=O)c1ccccc1NS(=O)(=O)c1ccc(OC(F)(F)F)cc1` too.
// result > 50 µM

// query Check `CC(=O)SCC(=O)c1ccc(NS(=O)(=O)c2cc(C)cc(C)c2)cc1` too.
// result < 10 µM

// query Check `CC(=O)Oc1ccccc1C(=O)SCC(=O)c1ccc(NS(=O)(=O)c2ccc(OC(F)(F)F)cc2)cc1` too.
// result < 1 µM

// query Check `CC(=O)SCC(=O)c1ccc(NS(=O)(=O)c2ccc(Cl)cc2Cl)cc1` too.
// result < 1 µM

// query Check `CC(=O)SCC(=O)c1ccc(NS(=O)(=O)c2cccnc2)cc1` too.
// result < 10 µM

New cases:
// query Recorded IC50 for `CC(=O)SCC(=O)c1ccc(NS(=O)(=O)c2c(C)noc2C)cc1` with HDAC in cells, please?
// result < 10 µM

FYI, the data here is from patent US7381749B2.
